Can you tell me IC50 for the items I'm about to list?
assay system: recombinant human SYK360-635 (Homo sapiens)
Construct: made in house
assay text: Determination of IC50 of Spleen Tyrosine Kinase (SYK) inhibition, 33P ATP filtration assay
Type: biochemical
experimental setup: SYK aa 360-635 0.5 nM; ATP 20 μM, peptide 5 μM, 0.1% BSA; read-out: SYK_ENZYME_FILTRATION/v1, BSA

I need IC50 for every entry listed below, if you could help.
1. C[C@@H](NC(=O)c1c[nH]c2ncc(-c3nn(C)c4cc(Cl)ccc34)nc12)c1ccccc1 [Example I-25]
2. Cn1nc(-c2cnc3[nH]cc(C(=O)N[C@H]4CC[C@@H](N)CC4)c3n2)c2ccc(Cl)cc21 [Example I-145]

["0.0542 µM", "0.0019 µM"]

###

assay system: JAK3: Recombinant human kinase domain (Homo sapiens, UniProt P52333)
Construct: JAK3: Recombinant human kinase domain from Millipore (Cat #14-629) or prepared
Sequence (P52333 822-1111 limits assumed): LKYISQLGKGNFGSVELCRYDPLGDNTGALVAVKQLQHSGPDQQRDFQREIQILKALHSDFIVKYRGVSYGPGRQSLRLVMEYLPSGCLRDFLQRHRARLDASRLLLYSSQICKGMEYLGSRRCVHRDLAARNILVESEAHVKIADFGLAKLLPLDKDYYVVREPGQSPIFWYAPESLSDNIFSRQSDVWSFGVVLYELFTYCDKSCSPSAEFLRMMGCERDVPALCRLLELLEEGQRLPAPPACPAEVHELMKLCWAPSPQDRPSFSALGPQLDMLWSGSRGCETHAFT
assay text: Determination of IC50 of Janus Kinase (JAK) inhibition, radioactive end-point 33P-ATP assay, JAK3
experimental setup: ATP 1.5 uM, peptide 50 uM, 20 minutes, read-out: JAK3-INHIB-DR/v1~NO ADDITIVE~Enzyme_Conc = 100
Can you tell me log10 IC50 for the items I'm about to list?
Plainly stated, the numbers are log10 of IC50 given in µM.

I need log10 IC50 for every entry listed below, if you could help.
1. C[C@@H](NC(=O)c1c[nH]c2ncc(-c3nn(C)c4cc(Cl)ccc34)nc12)C(=O)N1CCOCC1
2. C[C@@H](NC(=O)c1c[nH]c2ncc(-c3nn(C)c4cccnc34)nc12)C(=O)N1CC(C#N)C1
3. CC(NC(=O)c1c[nH]c2ncc(-c3nn(C)c4cc(Cl)ccc34)nc12)c1cccnc1 (stereo not shown)
4. Cn1nc(-c2cnc3[nH]cc(C(=O)N[C@H]4CC[C@H](O)C4)c3n2)c2ccc(F)cc21 (relative stereo)
5. COC[C@H](C)NC(=O)c1c[nH]c2ncc(-n3cnc4ccc(Cl)cc43)nc12
6. CC(NC(=O)c1c[nH]c2ncc(-c3nn(CCN(C)C)c4cc(Cl)ccc34)nc12)c1cccnc1 (stereo not shown)
7. C[C@@H](NC(=O)c1c[nH]c2ncc(-c3n[nH]c4cc(Cl)ccc34)nc12)C(=O)N1CC(C#N)C1

-1.07
-2.17
-1.18
-2.27
-0.46
-1.38
-3.23

###

assay system: recombinant human SYK360-635 (Homo sapiens)
Construct: made in house
assay text: Determination of IC50 of Spleen Tyrosine Kinase (SYK) inhibition, 33P ATP filtration assay
Assay type: biochemical
experimental setup: SYK aa 360-635 0.5 nM; ATP 20 μM, peptide 5 μM, 0.1% BSA; read-out: SYK_ENZYME_FILTRATION/v1, BSA
pIC50: −log10 of the molar value.
Kind request: treat 7 as inclusive, so pIC50 at 7 or higher is Criterion met, anything lower is Criterion not met.

Some entries whose results are on file:
INSERT INTO results (molecule, label_class) VALUES
  ('CC(C)CNC(=O)c1c[nH]c2ncc(-c3nn(C)c4cc(F)ccc34)nc12', 'Criterion met'),
  ('Cn1nc(-c2cnc3[nH]cc(C(=O)NC(C)(C)C)c3n2)c2ncccc21', 'Criterion met'),
  ('C[C@H](NC(=O)c1c[nH]c2ncc(-c3nn(C)c4cc(Cl)ccc34)nc12)C1CC1', 'Criterion met'),
  ('C[C@H](NC(=O)c1c[nH]c2ncc(-c3nn(C)c4cc(Cl)ccc34)nc12)c1ccccc1', 'Criterion not met'),
  ('COc1ccc2c(-c3cnc4[nH]cc(C(=O)NC(C)(C)CO)c4n3)nn(C)c2c1', 'Criterion met');

Kindly determine if pIC50 recorded for CC(C)(C)NC(=O)c1c[nH]c2ncc(-c3nn(CC(F)(F)F)c4cc(F)ccc34)nc12 is above or exactly 7.
Criterion met

# repeat for CN1CCN(C(=O)Cn2nc(-c3cnc4[nH]cc(C(=O)NC(C)(C)C)c4n3)c3cc(OC(F)F)ccc32)CC1
Criterion met

###

assay system: recombinant human SYK360-635 (Homo sapiens)
Construct: made in house
assay text: Determination of IC50 of Spleen Tyrosine Kinase (SYK) inhibition, 33P ATP filtration assay
Format: biochemical
experimental setup: SYK aa 360-635 0.5 nM; ATP 20 μM, peptide 5 μM, 0.1% BSA; read-out: SYK_ENZYME_FILTRATION/v1, BSA
metric: pIC50
Give bare numbers, as −log10 of the molar value.

Solved cases below.
INSERT INTO results (compound, metric, measured) VALUES
  ('Cn1nc(-c2cnc3[nH]cc(C(=O)NC(C)(C)CO)c3n2)c2cc(C3CC3)ccc21', 'pIC50', 8.10),
  ('Cn1nc(-c2cnc3[nH]cc(C(=O)NC(C)(C)CCO)c3n2)c2ccc(F)cc21', 'pIC50', 8.07),
  ('CN1CCC(n2nc(-c3cnc4[nH]cc(C(=O)NC(C)(C)C)c4n3)c3cc(OC(F)F)ccc32)CC1', 'pIC50', 7.84),
  ('CC(C)(C)NC(=O)c1c[nH]c2ncc(-n3ncc4ccc(F)cc43)nc12', 'pIC50', 6.97),
  ('CC(C)NC(=O)c1c[nH]c2ncc(-c3nn(C)c4ccc(O)cc34)nc12', 'pIC50', 8.24),
  ('CC(NC(=O)c1c[nH]c2ncc(-c3nn(C)c4cc(Cl)ccc34)nc12)c1ncco1 (centres unmarked)', 'pIC50', 7.66);

I need pIC50 for every entry listed below, if you could help.
1. CC(C)NC(=O)c1c[nH]c2ncc(-c3nn(CCN4CCOCC4)c4cc(Cl)cc(F)c34)nc12
2. CC(C)(C)NC(=O)c1c[nH]c2ncc(-c3nn(CC(=O)N4CCN(CC(F)(F)F)CC4)c4ccc(OC(F)F)cc34)nc12
3. Cn1nc(-c2cnc3[nH]cc(C(=O)N[C@@H]4CCC[C@@H](N)C4)c3n2)c2ccc(Cl)cc21 (relative stereo)
4. COC(=O)c1cnc([C@H](C)NC(=O)c2c[nH]c3ncc(-c4nn(C)c5cc(F)ccc45)nc23)[nH]1
5. CN1CCOC(Cn2nc(-c3cnc4[nH]cc(C(=O)NC(C)(C)C)c4n3)c3cc(OC(F)F)ccc32)C1 (centres unmarked)
6. CC(C)NC(=O)c1c[nH]c2ncc(-c3c4c(n(C)[n+]3[O-])CCCC4)nc12
7. CC(C)(C)NC(=O)c1c[nH]c2ncc(-c3nn(CC(=O)N4CCOCC4)c4cc(F)ccc34)nc12
8. C[C@@H](NC(=O)c1c[nH]c2ncc(-c3cn(C)c4cc(Cl)ccc34)nc12)C(=O)N1CC(C#N)C1

7.31
7.80
7.79
6.95
7.76
5.57
7.84
8.39

I need pIC50 for every entry listed below, if you could help.
1. Cn1nc(-c2cnc3[nH]cc(C(=O)N[C@@H]4CCC[C@@H](C#N)C4)c3n2)c2ccc(Cl)cc21 (relative stereo)
2. Cn1nc(-c2cnc3[nH]cc(C(=O)N[C@@H]4CC[C@@H](C#N)C4)c3n2)c2ccc(Cl)cc21
3. Cn1nc(-c2cnc3[nH]cc(C(=O)NC4(C(C)(C)O)CCC4)c3n2)c2ccc(F)cc21

7.07
7.57
6.22

I need pIC50 for every entry listed below, if you could help.
1. NC(=O)c1c[nH]c2ncc(-c3nn(CC(=O)N4CCOCC4)c4cc(F)ccc34)nc12
2. CC(C)(CO)NC(=O)c1c[nH]c2ncc(-n3ncc4cc(F)ccc43)nc12
3. Cn1nc(-c2cnc3[nH]cc(C(=O)NC(C)(C)C)c3n2)c2ccc(OC(F)(F)F)cc21
4. CC(C)NC(=O)c1c[nH]c2ncc(-c3nn(C)c4ccc(Oc5cccc(Cl)c5)cc34)nc12
5. CC(NC(=O)c1c[nH]c2ncc(-c3nn(C)c4cc(Cl)ccc34)nc12)C(F)(F)F (centres unmarked)
6. Cn1nc(-c2cnc3[nH]cc(C(=O)NC(C)(C)C)c3n2)c2ccc(S(C)(=O)=O)cc21

1: 6.81; 2: 7.25; 3: 7.39; 4: 6.42; 5: 7.43; 6: 7.79

###

assay system: recombinant human SYK360-635 (Homo sapiens, UniProt P43405)
Construct: made in house
assay text: Determination of IC50 of Spleen Tyrosine Kinase (SYK) inhibition, 33P ATP filtration assay
Format: biochemical
experimental setup: SYK aa 360-635 0.5 nM; ATP 20 μM, peptide 5 μM, 0.1% BSA; read-out: SYK_ENZYME_FILTRATION/v1, BSA
pIC50: −log10 of the molar value.
Kind request: treat 8 as inclusive, so pIC50 at 8 or higher is Met, anything lower is Not met.

Some entries whose results are on file:
INSERT INTO results (compound_string, label_class) VALUES
  ('C[C@H](NC(=O)c1c[nH]c2ncc(-c3nn(C)c4cc(F)ccc34)nc12)c1ncc(C(F)(F)F)[nH]1', 'Not met'),
  ('Cn1nc(-c2cnc3[nH]cc(C(=O)NC(C)(C)C)c3n2)c2cccnc21', 'Not met');

Kindly determine if pIC50 recorded for Cn1nc(-c2cnc3[nH]cc(C(=O)NC(C)(C)C)c3n2)c2ccccc21 is above or exactly 8.
Met

# repeat for COC[C@H](C)NC(=O)c1c[nH]c2ncc(-c3nn(Cc4cccnc4)c4cc(F)ccc34)nc12
Not met
